Measured values drawn from ChEMBL document CHEMBL1157539 for this set.

system: Plasmodium falciparum; experiment: GSK_TCMDC: Inhibition of Plasmodium falciparum 3D7 in whole red blood cells, using parasite LDH activity as an index of growth. Test compounds present at 2uM; type: functional
Property: Inhibition; scope: individual molecules
Field: numeric (%). Do not append units.

As a guide, the following entries are already answered.
INSERT INTO measurements (molecule, test_readout, readout_value) VALUES
  ('Cc1nc(NCCCn2ccnc2)cc(-c2cncc(-c3ccc(OC(F)(F)F)cc3)c2)n1', 'Inhibition', 99),
  ('O=C(CC1NC(=O)c2ccccc21)Nc1ccc(-c2ccc(-c3nc4cc(C(F)(F)F)ccc4[nH]3)cc2)cc1 (stereo not given)', 'Inhibition', 87),
  ('CC(O)C(=O)O.COc1cc(Cc2cnc(N)nc2N)c2c(c1OC)OC(C)(C)C=C2', 'Inhibition', 93),
  ('CN(C)CCCSc1ccccc1NC(=O)C=Cc1ccccc1', 'Inhibition', 85);

Req: Please give measured Inhibition of the following entry: CC(C)CNC(=O)c1ccnc(-c2ccc(CNCCCc3ccccc3)cc2)c1.O=C(O)C(F)(F)F
Resp: 99

====

test system: HepG2; assay: GSK_TCMDC: Percent inhibition of human HepG2 cell line. Test compounds present at 10uM.; type: functional
# if measured Inhibition < 5%: 1  # else: -1

INSERT INTO results (molecule, assigned_label) VALUES
  ('CCCCNCc1ccc(-c2nc(CN(CCCn3ccnc3)C(=O)NC3CC3c3ccccc3)cs2)cc1.O=C(O)C(F)(F)F (centres undefined)', -1),
  ('CC(C)CN(c1nc(C(=O)NNC(=O)[C@H](CC2CC2)NC(=O)c2cc3cc(OCCN(C)C)ccc3o2)cs1)C1CC1', 1),
  ('O=C(CSc1ccccn1)Nc1c(F)cccc1F', 1);

Req: Please let me know if [O-][S+]1c2ccccc2Sc2ccccc21 shows Inhibition below 5%.
Resp: -1

Req: Does the reported Inhibition of the following molecule sit strictly below 5%? CC(=O)Nc1ccc(S(=O)(=O)N(Cc2cccc(Oc3ccccc3)c2)C2CCN(C/C=C(\C)CCC=C(C)C)CC2)cc1
Resp: -1

Req: Determine whether this molecule shows Inhibition lower than 5% (ties excluded): Cc1cc(N2CCCC2)nc(Nc2ccc(NC(=O)c3ccco3)cc2)n1
Resp: -1

Req: Just wondering, is Inhibition of CCOC(=O)c1ccc(NC(=O)Nc2ccc(Cn3ncc(N4CCCNCC4)c(Cl)c3=O)cc2)cc1.O=C(O)C(F)(F)F below 5%?
Resp: 1

Req: Hello, I'm reviewing records and need to know if Inhibition of O=C(NCC1CCC1)c1cnc(Nc2cccc(Cl)c2)nc1N1CCC1 is below 5%. Could you check?
Resp: -1

====

Reported values of Inhibition for individual entries
system: Plasmodium falciparum; test: GSK_TCMDC: Inhibition of Plasmodium falciparum 3D7 in whole red blood cells, using parasite LDH activity as an index of growth. Test compounds present at 2uM; assay type: functional
API: value field is a number in %; no unit string.

Please review the following examples before continuing.
INSERT INTO results (compound, readout_value) VALUES
  ('COc1ccc(CC(=O)NC(CCN2CCC3(CC2)CN(S(C)(=O)=O)c2ccccc23)c2ccc(Cl)c(Cl)c2)cc1OC (centres undefined)', 92),
  ('CC12CN3CC(C)(CN(C1)C3c1cc(Br)ccc1O)C2O (centres undefined)', 98),
  ('Cc1ccc(CN2CCN(c3cc4c(cc3Cl)CCN4C(=O)Cc3ccc(Cl)c(NC(=O)Nc4cccc(C#N)c4)c3)CC2)cc1', 92);

Req: Kindly indicate its recorded Inhibition. Item: O=C(NC1CCCCN(Cc2ccccc2O)C1)c1cccc(C(F)(F)F)c1.O=C(O)C(F)(F)F (centres undefined)
Resp: 93

====

system: HepG2; test: GSK_TCMDC: Percent inhibition of human HepG2 cell line. Test compounds present at 10uM.; type: functional
Listed compounds paired with reported Inhibition
Quick reminder: number only, in %, skip the unit.

Here's what some known entries look like.
INSERT INTO results (compound, target_system, value_units, readout_value) VALUES
  ('COC(=O)c1cccc(NC(=O)NC2CCN(c3ccnc(Nc4ccc(F)cc4)n3)C2)c1 (configuration not stated)', 'HepG2', '%', 5),
  ('CCn1c(-c2nonc2N)nc2c(-c3cccc(NC(=O)Nc4ccc(C#N)cc4)c3)ncc(OCCCN)c21.O=C(O)C(F)(F)F', 'HepG2', '%', 1),
  ('Cn1cncc1CCN(Cc1ccc(-c2ccc(C(F)(F)F)cc2)cc1)C(=O)Cn1c(SCc2cccc(F)c2F)cc(=O)c2ccccc21', 'HepG2', '%', 24),
  ('CN(C)CCN(C)Cc1ccc(-c2ccc(NS(=O)(=O)c3cccc4cccnc34)cc2)cc1.O=C(O)C(F)(F)F', 'HepG2', '%', 23),
  ('CCc1cc(NC2CCN(C)CC2)nc(Nc2ccc(C)cc2)n1', 'HepG2', '%', 3);

Req: Tell me measured Inhibition for COc1ccc(NC(=O)c2ccc(-c3cc(NC(=O)c4ccnc(N5CCCC5)c4)ccc3C)s2)cc1N1CCN(C)CC1.O=C(O)C(F)(F)F please.
Resp: 15

Req: Check the records and state Inhibition for CC(C)CCNCc1ccc(OCc2cccc(C(=O)Nc3ccccc3)c2)c(I)c1.O=C(O)C(F)(F)F
Resp: 25

Req: Supply measured Inhibition of N=C(N)CCN(Cc1ccccc1)c1ccc(Cl)cc1 in your reply.
Resp: 1

Req: Give the reported value of Inhibition for this record: CC(=O)C1=NN(c2ccc(C)cc2)C(c2cccs2)N1c1ccccc1 (configuration not stated)
Resp: 0

Req: Please give the documented Inhibition of COc1ccc2[nH]ccc(=NN=Cc3ccc(F)cc3)c2c1
Resp: 2

====

system: Plasmodium falciparum; assay: GSK_TCMDC: Inhibition of Plasmodium falciparum 3D7 in whole red blood cells, using parasite LDH activity as an index of growth. Test compounds present at 2uM; format: functional
TEST_READOUT: Inhibition (%)
Please respond with the number in % and leave the unit unwritten.

INSERT INTO results (molecule, target_system, readout_value) VALUES
  ('COc1ccc(-c2ccc(NC(=O)c3cccs3)cc2)cc1CN1CCCN(C)CC1.O=C(O)C(F)(F)F', 'Plasmodium falciparum', 100),
  ('N#Cc1cccc(NC(=O)Nc2cccc(-c3cccc(-c4nc5ccccc5[nH]4)c3)c2)c1', 'Plasmodium falciparum', 100),
  ('O=C(O)C(F)(F)F.O=S(=O)(NCCN1CCCC1)c1ccc(-c2cccc(CNCc3ccc(F)cc3)c2)cc1', 'Plasmodium falciparum', 100),
  ('CN1CCCc2ccc(NC(=O)Nc3ccc(Cl)c(Cl)c3)cc2C1', 'Plasmodium falciparum', 89);

Attention now shifts to the item below.
Req: Please list Inhibition recorded for the molecule COc1ccccc1C1CC(c2ccccc2)=NN1C(=O)c1ccco1 (stereo not given)
Resp: 97

====

The following molecules are shown together with reported Inhibition values.
test system: HepG2; assay: GSK_TCMDC: Percent inhibition of human HepG2 cell line. Test compounds present at 10uM.; assay type: functional
Give your result in % as a bare value.

Here's what some known entries look like.
INSERT INTO assay_data (molecule, readout_value) VALUES
  ('CCCc1cc(Cc2cnc(N)nc2N)cc(CC)c1OC.Cl', 4),
  ('COc1ccc(OC)c(C=NNc2nc3ccccc3[nH]2)c1', 0),
  ('COc1cc(C(=O)NC2CCN(Cc3ccccc3)CC2)ccc1-c1nc2cc(Cl)c(C)cc2[nH]1', 0),
  ('COc1ccc(-c2cc3ncnc(N4CCN(CCN5CCCC5)CC4)c3s2)cc1', 22),
  ('Cc1ccccc1Nc1nc(NCCCO)c2ccccc2n1.Cl', 0),
  ('c1ccc(OCCOc2ccc(Nc3ccnc4cc5ccccc5cc34)cc2)cc1', 44),
  ('CCCCCCCCN1CCN(CCCCCCNc2c3ccccc3nc3ccccc23)CC1.Cl', 100),
  ('COc1ccc(Cn2c(Nc3cccc(C(F)(F)F)c3)nc3cc(C(=O)NCCCN(C)C)ccc32)cc1Cl', 15);

Req: Fetch value of Inhibition on HepG2 for Cl.Oc1cccc(Nc2ccnc3cc(-c4ccncc4)ccc23)c1 .
Resp: 8

Req: With HepG2 as the test system, provide measured Inhibition for this molecule: CCN1CCCC(CNC(=O)/C(=C/C=C/c2cc3cc(Cl)c(Cl)cc3[nH]2)OC)C1 (stereo not given)
Resp: 33

====

tested on: Plasmodium falciparum; assay: GSK_TCMDC: Inhibition of Plasmodium falciparum Dd2 in whole red blood cells, using parasite LDH activity as an index of growth. Test compounds present at 2uM; type: functional
Please note: yes (1) applies when Inhibition is 70% or greater, and no (0) applies otherwise.

Look over these answered cases.
INSERT INTO measurements (compound, target_system, assigned_label) VALUES
  ('N=C(N)Nc1nc(-c2cccc(NC(=O)NCc3ccc(OC(F)(F)F)cc3)c2)cs1', 'Plasmodium falciparum', 'no (0)'),
  ('Cc1cc(N2CC=CCC2)nc(NC(=N)Nc2ccc(Cl)cc2)n1', 'Plasmodium falciparum', 'yes (1)'),
  ('CCN1CCN(CCCCNc2c3ccccc3nc3ccccc23)CC1.Cl', 'Plasmodium falciparum', 'no (0)');

Req: Identify whether the reported Inhibition of the following compound is 70% or greater: CC1(C)CCCN(Cc2c(O)ccc3c(O)c(-c4nc5ccccc5s4)c(=N)oc23)C1
Resp: yes (1)

Req: Kindly determine if Inhibition recorded for COc1ccc2nccc([C@@H](O)CN3CCC(NCc4ccc5nsnc5c4)CC3)c2c1.O=C(O)C(=O)O is above or exactly 70%.
Resp: no (0)

Req: Exam item: decide whether the reported Inhibition for CCOc1cc(C(=O)N[C@@H](Cc2ccccc2)[C@H](O)CNCc2cc(OC)cc(OC)c2)cc(N2CCCS2(=O)=O)c1.Cl is at least 70%.
Resp: no (0)

Req: Textbook exercise: given the entry CNC(=O)c1cnc(Nc2ccc(N3CCN(C)CC3)cc2)nc1Nc1cccc([N+](=O)[O-])c1.O=C(O)C(F)(F)F , state whether its Inhibition is greater than or equal to 70%.
Resp: yes (1)

Req: Please tell me: is the compound COc1ccc(CC(=O)Nc2ccc(Nc3nc(C)cc(N4CCCC4)n3)cc2)cc1 at or over 70% in terms of Inhibition?
Resp: no (0)

Req: Assess whether reported Inhibition for COc1ccc2nccc([C@@H](O)CN3CCC(NCc4cc5sccc5nc4C(F)(F)F)CC3)c2c1.O=C(O)C(=O)O sits at 70% or higher.
Resp: no (0)

Req: Reported Inhibition reaches at least 70% for COc1cc(O)c2c(=O)c(OC)c(-c3cccc(Cl)c3OC3O[C@H](CO)[C@@H](O)[C@H](O)[C@H]3O)oc2c1OC (stereo partly drawn) ?
Resp: no (0)

Req: Does Inhibition meet or surpass 70% for Cc1cccc2nc(-c3cccc(-c4ccc(NC(=O)c5cnccc5C(F)(F)F)cc4)c3)[nH]c12 ?
Resp: no (0)

Req: Could you verify whether the entry O=C(NCc1ccccc1)c1ncn(CCCN2CCC(N3CCCC3)CC2)c1-c1ccc(Cl)c(Cl)c1.O=CO shows Inhibition of no less than 70%?
Resp: no (0)

Req: Item Cc1nc(-c2cccc(Nc3nccc(NCC(O)c4ccc(C(F)(F)F)cc4)n3)c2)cs1 (stereo not drawn) with Inhibition of 70% or above?
Resp: yes (1)

Req: Reported Inhibition at or above 70%? CC(=O)Nc1ncc(C(=O)Nc2cccc(-c3ccc(-c4nc5cccc(C)c5[nH]4)cc3)c2)s1
Resp: yes (1)
